Taken from the supplement of paper PMC6555819.

The following sequences are shown together with reported PBM binding z-score values.
tested on: THRa homodimer (NR concentration 90 nM); experiment: PBM binding z-score (relative to random genomic background probes); higher = stronger binding; sequences stand for … in GC…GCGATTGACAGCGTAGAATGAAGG
Just the number, please, no unit after it.

The following sequences have reported results that may help.
{"columns": ["ordered residues", "measured target", "PBM binding z-score"],
 "data": [
  ["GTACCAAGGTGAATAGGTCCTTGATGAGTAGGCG", "THRa homodimer (NR concentration 90 nM)", 0.287],
  ["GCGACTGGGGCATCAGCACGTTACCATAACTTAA", "THRa homodimer (NR concentration 90 nM)", -0.089],
  ["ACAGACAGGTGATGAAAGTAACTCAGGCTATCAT", "THRa homodimer (NR concentration 90 nM)", -0.579]
]}

--- query ---
Form field PBM binding z-score for item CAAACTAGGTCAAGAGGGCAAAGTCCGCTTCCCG on THRa homodimer (NR concentration 90 nM): 1.03

====

The following sequences are shown together with reported PBM binding z-score values.
tested on: PPARa:RXRa (NR concentration 270 nM, RXRa partner concentration 90 nM); assay: PBM binding z-score (relative to random genomic background probes); higher = stronger binding; sequences stand for … in GC…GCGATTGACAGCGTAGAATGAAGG
Just the number, please, no unit after it.

The following sequences have reported results that may help.
{"columns": ["ordered residues", "PBM binding z-score"],
 "data": [
  ["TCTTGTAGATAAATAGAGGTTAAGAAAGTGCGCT", 1.73],
  ["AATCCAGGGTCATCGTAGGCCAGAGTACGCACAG", 5.75],
  ["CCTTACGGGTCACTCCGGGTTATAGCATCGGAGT", 4.62],
  ["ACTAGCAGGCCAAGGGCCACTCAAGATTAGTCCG", 0.699],
  ["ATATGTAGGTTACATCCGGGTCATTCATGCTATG", 4.55]
]}

The sequence identified as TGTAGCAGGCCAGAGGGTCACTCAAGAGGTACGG registered its PBM binding z-score at 2.15

The sequence identified as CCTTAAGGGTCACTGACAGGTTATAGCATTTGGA registered its PBM binding z-score at 6.24

====

The following sequences are shown together with reported PBM binding z-score values.
system: RXRa DBDmut IVT, anti-RXR (DBD mutation: RXRa K156A/R161A, NR concentration 90 nM); assay: PBM binding z-score (relative to random genomic background probes); higher = stronger binding; sequences stand for … in GC…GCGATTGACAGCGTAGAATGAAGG

{"columns": ["ordered residues", "measured target", "PBM binding z-score"],
 "data": [
  ["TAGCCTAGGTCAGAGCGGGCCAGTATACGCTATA", "RXRa DBDmut IVT, anti-RXR (DBD mutation: RXRa K156A/R161A, NR concentration 90 nM)", -0.459],
  ["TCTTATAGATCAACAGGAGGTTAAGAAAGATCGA", "RXRa DBDmut IVT, anti-RXR (DBD mutation: RXRa K156A/R161A, NR concentration 90 nM)", 1.06],
  ["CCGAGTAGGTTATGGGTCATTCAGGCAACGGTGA", "RXRa DBDmut IVT, anti-RXR (DBD mutation: RXRa K156A/R161A, NR concentration 90 nM)", 0.565],
  ["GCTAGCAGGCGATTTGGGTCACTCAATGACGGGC", "RXRa DBDmut IVT, anti-RXR (DBD mutation: RXRa K156A/R161A, NR concentration 90 nM)", -0.454],
  ["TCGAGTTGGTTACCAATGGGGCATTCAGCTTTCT", "RXRa DBDmut IVT, anti-RXR (DBD mutation: RXRa K156A/R161A, NR concentration 90 nM)", 0.662],
  ["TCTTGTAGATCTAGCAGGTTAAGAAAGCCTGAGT", "RXRa DBDmut IVT, anti-RXR (DBD mutation: RXRa K156A/R161A, NR concentration 90 nM)", 0.705],
  ["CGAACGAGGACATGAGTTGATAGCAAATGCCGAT", "RXRa DBDmut IVT, anti-RXR (DBD mutation: RXRa K156A/R161A, NR concentration 90 nM)", 1.52],
  ["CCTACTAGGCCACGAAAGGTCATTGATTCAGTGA", "RXRa DBDmut IVT, anti-RXR (DBD mutation: RXRa K156A/R161A, NR concentration 90 nM)", 1.22]
]}

The sequence identified as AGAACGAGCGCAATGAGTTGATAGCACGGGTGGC registered its PBM binding z-score at -0.213

The sequence identified as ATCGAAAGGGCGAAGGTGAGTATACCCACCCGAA registered its PBM binding z-score at -0.634

The sequence identified as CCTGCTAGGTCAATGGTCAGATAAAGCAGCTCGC registered its PBM binding z-score at 1.55

The sequence identified as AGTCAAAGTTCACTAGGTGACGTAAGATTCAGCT registered its PBM binding z-score at 4.42

The sequence identified as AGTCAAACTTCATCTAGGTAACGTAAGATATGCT registered its PBM binding z-score at 0.281

The sequence identified as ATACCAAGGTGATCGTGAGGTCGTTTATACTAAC registered its PBM binding z-score at 1.06

====

system: RARg:RXRa (NR concentration 270 nM, RXRa partner concentration 90 nM); test: PBM binding z-score (relative to random genomic background probes); higher = stronger binding; sequences stand for … in GC…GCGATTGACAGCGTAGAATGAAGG
property measured: PBM binding z-score
Just the number, please, no unit after it.

The following sequences have reported results that may help.
{"columns": ["ordered residues", "recorded number"],
 "data": [
  ["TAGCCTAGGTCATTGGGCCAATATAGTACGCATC", 4.02],
  ["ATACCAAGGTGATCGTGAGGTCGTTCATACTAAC", 2.21],
  ["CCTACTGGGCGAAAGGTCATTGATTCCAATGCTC", 5.19],
  ["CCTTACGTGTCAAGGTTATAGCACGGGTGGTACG", 1.34]
]}

The sequence identified as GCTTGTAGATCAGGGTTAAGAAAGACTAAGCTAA registered its PBM binding z-score at 0.416

The sequence identified as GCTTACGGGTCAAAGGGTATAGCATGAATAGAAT registered its PBM binding z-score at 5.24

The sequence identified as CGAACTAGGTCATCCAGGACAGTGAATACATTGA registered its PBM binding z-score at 4.04

The sequence identified as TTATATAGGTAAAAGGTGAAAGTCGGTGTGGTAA registered its PBM binding z-score at 2.08

The sequence identified as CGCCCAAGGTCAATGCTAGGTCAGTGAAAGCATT registered its PBM binding z-score at 7.39

The sequence identified as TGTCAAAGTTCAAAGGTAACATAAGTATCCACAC registered its PBM binding z-score at 6.56

The sequence identified as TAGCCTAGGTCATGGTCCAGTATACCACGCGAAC registered its PBM binding z-score at 3.96

The sequence identified as CGAACTAGGTCATCCAAGACAGTGAATACATTGA registered its PBM binding z-score at 4.15

The sequence identified as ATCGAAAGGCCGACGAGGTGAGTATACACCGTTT registered its PBM binding z-score at 0.783

The sequence identified as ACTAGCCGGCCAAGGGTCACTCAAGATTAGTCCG registered its PBM binding z-score at 3.96

The sequence identified as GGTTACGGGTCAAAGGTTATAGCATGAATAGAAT registered its PBM binding z-score at 6.91

The sequence identified as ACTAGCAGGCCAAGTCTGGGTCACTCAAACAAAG registered its PBM binding z-score at 2.25

The sequence identified as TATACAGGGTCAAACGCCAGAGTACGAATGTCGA registered its PBM binding z-score at 5.93

The sequence identified as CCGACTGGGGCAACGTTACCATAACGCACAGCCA registered its PBM binding z-score at 0.137

The sequence identified as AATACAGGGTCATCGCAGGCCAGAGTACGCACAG registered its PBM binding z-score at 5.41

The sequence identified as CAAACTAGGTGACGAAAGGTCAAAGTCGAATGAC registered its PBM binding z-score at 6.2

The sequence identified as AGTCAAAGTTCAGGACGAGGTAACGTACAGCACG registered its PBM binding z-score at 4.77

The sequence identified as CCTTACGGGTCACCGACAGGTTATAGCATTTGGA registered its PBM binding z-score at 6.61
